The reported measurements were obtained from PubChem BioAssay (NCI).

Quick list: growth inhibition per entry.
- EXPERIMENT SUMMARY: NCI Yeast Anticancer Drug Screen. Data for the sgs1 mgt1 strain (AID 161);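 further: 0% = growth of cultures given vehicle only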
- CONDITION LABEL: S. cerevisiae sgs1 mgt1 strain, at 50.0 µM, stronger effect = higher value
- Description: Growth inhibition of yeast strains with defined genetic alterations is measured as a screen for potential anti-cancer activity. Selected strains with alterations in DNA damage repair or cell cycle control were exposed to compounds and growth inhibition was measured relative to vehicle treated controls. The strain used in this assay is sgs1 mgt1
This is part of a sample that, as a whole, favours compounds with a hit. Of some 79,000 tested, about 15% had one in any assay. Calls of active or inactive are those of the source. No stated cut-off is given here; in the data, active means growth inhibition above about 70%; inactive means the rest.

COc1cccc(-n2cnc3c(=S)nc[nH]c32)c1 = 9.7% (inactive)
O=c1[nH]nc(SCc2ccccc2)c(=O)n1C(c1ccccc1)c1ccccc1 = 18.6% (inactive)
OC1C2CC3C(C2)C13 (stereo unspecified) = 2.25% (inactive)
CN1CCCCC1C(O)CO (stereo unspecified) = -8.05% (inactive)
C/C=C/c1ccc(OC(C)C(=O)c2ccc3c(c2)OCO3)c(OC)c1 (stereo unspecified) = 8.8% (inactive)
CC(C)CC(=O)OC1=C(O)C(=O)C(OC(=O)CC(C)C)=C(O)C1=O = 2.1% (inactive)
COC(=O)CCCCCCCCCCCCC1C=CCC1 (stereo unspecified) = 11.4% (inactive)
OCC(O)C(O)C(O)C(SCc1ccccc1)SCc1ccccc1 (stereo unspecified) = -20.4% (inactive)

Data point: C/C=C/C(=O)OCCc1ccccc1 ; growth inhibition = 3.75% (inactive)

Data point: CCC(=O)/C=C/c1ccccc1 ; growth inhibition = -22.1% (inactive)

Data point: CCCCCCC(=O)/C=C/c1ccc(OCc2ccccc2)c(OCc2ccccc2)c1 ; growth inhibition = 18.5% (inactive)

Data point: CCOC(=O)c1cc2c(nc1N)C(=O)CCC2 ; growth inhibition = 34.2% (inactive)

Data point: CCC(C)CCC(=O)C(C)C(=O)O (stereo unspecified) ; growth inhibition = 3.45% (inactive)

Data point: CC1=CC(C)(C)NC(=S)N1c1ccc(O)cc1 ; growth inhibition = 11.3% (inactive)

Data point: CC(Oc1ccc(Br)cc1Br)C(=O)O (stereo unspecified) ; growth inhibition = 1.2% (inactive)

---

- EXPERIMENT SUMMARY: NCI Yeast Anticancer Drug Screen. Data for the sgs1 mgt1 strain (AID 161);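 further: 0% = growth of cultures given vehicle only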
- CONDITION LABEL: S. cerevisiae sgs1 mgt1 strain, at 50.0 µM, stronger effect = higher value
This is part of a sample that, as a whole, favours compounds with a hit. Of some 79,000 tested, about 15% had one in any assay.
MEASURED ATTRIBUTE: growth inhibition (%)
Field format: number, assumed %, no unit text.

Answered cases to consult:
CC1(C)CC(N(CCO)CCO)CC(C)(C)N1O = 11.4
CCOC(=O)COc1cc2c(cc1Cc1ccc(OC)cc1)OCO2 = 5.45
CC1CCc2[nH]nc(CC3CC(=O)NC(=O)C3)c2C1 (centres undefined) = 10.8
CC(=O)c1cc(C(C)=O)c(CC(=O)C(=O)Nc2cccc(C)c2C)nc1CC(=O)C(=O)Nc1cccc(C)c1C = 16.5
Oc1ccccc1C=Nc1ccccc1 = 0
CCCCCNC(=O)CCC = 25.6

Data point: CC(O)(C(=O)O)c1ccccc1O (centres undefined) ; growth inhibition = 2.05

Data point: O=C(O)COc1cc(Cl)cc(F)c1Cl ; growth inhibition = -9.4

Data point: Oc1ccc(NCc2ccccc2)cc1 ; growth inhibition = 16.9

Data point: O=C(NC(=O)c1c(F)cccc1F)Nc1cccc(C(F)(F)F)c1 ; growth inhibition = 3.9

Data point: CC1CCC2c3c([nH]c4ccccc34)C3C(=O)N(C4CCCCC4)C(=O)C3C2C1 (centres undefined) ; growth inhibition = 1.8
